System tested: LRRK2 G2019S (Homo sapiens (Human), UniProt Q5S007, G2019S)
Sequence (Q5S007 whole entry G2019S): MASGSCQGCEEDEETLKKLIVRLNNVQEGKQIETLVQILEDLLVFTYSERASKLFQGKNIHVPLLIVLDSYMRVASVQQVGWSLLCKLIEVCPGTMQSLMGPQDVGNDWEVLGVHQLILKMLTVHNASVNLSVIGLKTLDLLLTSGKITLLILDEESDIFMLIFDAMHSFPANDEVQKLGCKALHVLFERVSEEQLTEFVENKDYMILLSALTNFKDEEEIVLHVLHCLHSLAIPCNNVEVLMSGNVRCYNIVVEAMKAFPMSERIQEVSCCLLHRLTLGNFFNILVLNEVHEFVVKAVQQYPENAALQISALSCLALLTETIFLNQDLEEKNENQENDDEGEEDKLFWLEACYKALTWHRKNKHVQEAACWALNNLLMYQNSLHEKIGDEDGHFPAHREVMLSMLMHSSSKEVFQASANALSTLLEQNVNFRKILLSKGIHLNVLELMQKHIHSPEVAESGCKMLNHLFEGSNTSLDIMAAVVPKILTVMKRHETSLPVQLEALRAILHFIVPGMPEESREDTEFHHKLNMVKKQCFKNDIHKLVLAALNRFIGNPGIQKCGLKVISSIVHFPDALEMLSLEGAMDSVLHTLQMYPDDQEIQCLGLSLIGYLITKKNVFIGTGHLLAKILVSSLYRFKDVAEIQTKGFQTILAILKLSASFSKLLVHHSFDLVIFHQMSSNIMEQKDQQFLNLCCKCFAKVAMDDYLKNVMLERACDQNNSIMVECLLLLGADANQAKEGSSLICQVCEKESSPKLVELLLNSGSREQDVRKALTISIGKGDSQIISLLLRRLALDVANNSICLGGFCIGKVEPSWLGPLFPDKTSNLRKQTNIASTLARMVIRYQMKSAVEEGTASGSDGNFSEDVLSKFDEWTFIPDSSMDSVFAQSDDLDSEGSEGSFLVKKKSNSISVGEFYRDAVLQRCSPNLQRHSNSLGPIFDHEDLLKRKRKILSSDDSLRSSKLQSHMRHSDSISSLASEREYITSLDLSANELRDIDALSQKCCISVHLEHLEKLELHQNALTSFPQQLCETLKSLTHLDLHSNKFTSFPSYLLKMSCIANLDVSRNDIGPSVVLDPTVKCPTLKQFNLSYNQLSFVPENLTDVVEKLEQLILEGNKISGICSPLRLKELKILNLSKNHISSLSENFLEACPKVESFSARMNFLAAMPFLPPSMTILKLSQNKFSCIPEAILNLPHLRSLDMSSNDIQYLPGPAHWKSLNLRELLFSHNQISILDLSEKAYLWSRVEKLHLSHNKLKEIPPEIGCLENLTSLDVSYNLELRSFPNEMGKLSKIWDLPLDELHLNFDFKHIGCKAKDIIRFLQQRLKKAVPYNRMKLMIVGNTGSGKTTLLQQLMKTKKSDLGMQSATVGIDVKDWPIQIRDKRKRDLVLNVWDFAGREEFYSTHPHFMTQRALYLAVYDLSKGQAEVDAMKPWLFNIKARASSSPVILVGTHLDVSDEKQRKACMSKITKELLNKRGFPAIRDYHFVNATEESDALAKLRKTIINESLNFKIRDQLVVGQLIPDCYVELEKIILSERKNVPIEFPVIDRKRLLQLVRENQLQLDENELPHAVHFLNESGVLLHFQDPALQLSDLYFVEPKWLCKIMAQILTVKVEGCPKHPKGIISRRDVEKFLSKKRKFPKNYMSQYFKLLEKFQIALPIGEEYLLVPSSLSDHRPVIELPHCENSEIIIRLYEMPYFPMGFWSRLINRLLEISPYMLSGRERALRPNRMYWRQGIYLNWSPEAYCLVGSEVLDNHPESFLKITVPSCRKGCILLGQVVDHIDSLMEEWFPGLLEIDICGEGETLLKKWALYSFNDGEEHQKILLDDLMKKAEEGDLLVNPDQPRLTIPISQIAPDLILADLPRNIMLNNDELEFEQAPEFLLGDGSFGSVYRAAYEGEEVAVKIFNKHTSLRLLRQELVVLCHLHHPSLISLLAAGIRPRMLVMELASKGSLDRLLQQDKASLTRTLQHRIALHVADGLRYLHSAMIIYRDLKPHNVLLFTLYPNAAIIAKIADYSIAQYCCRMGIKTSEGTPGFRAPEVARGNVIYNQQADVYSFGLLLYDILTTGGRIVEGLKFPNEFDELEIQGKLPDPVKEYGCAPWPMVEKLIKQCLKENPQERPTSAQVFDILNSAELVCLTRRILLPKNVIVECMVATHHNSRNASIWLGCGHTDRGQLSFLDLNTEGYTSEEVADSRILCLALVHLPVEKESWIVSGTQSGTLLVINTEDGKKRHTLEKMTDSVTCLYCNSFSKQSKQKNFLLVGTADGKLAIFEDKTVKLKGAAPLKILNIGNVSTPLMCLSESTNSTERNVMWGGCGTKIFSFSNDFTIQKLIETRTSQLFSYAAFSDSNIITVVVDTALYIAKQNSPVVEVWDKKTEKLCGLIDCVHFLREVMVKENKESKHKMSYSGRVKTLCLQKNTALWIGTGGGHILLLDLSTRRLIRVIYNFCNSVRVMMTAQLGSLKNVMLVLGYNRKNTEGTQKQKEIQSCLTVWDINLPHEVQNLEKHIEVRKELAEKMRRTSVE
Measurement notes: Inhibition of LRRK2 G2019S (Adapta kinase assay)
Details: Adapta method, 60 min kinase reaction
Items are presented alongside their recorded IC50.
// note: answer is a bare numeric in nM

Task: Entry under review: COc1ccc2nc(NC(=O)c3ccc(N4CCOCC4)cc3)sc2c1 [Compound 2] . Reported IC50?
Result: 108

Task: Would you mind doing O=C(Nc1nc2ccccc2s1)c1ccc(N2CCOCC2)cc1 [Compound 1] as well?
Result: 360

Task: Would you mind doing Cc1ccc2nc(NC(=O)c3ccc(N4CCOCC4)cc3)sc2c1 [Compound 4] as well?
Result: 332

Task: Would you mind doing CCCOc1ccc2nc(NC(=O)c3ccc(N4CCOCC4)cc3)sc2c1 [Compound 9] as well?
Result: 1190

====

Measurement notes: in vitro
Details: pig, PAMPA, pH 7.4
Description: The above-referenced commercial compounds, phosphate buffer at pH=7.4 (PBS), Ethanol and dodecane were obtained from the commercial houses Sigma, Acros organics, Merck, Aldrich and Fluka, respectively. […] To filter the samples, PVDF membrane filters were used (30 mm diameter, 0.45 μm pore size) from the company Symta. The equipment used to measure UV absorbance in 96-well plates was a Thermoscientific Multiskan spectrum. […]
Value type: Papp at 2.5 h (×10⁻⁶ cm/s)
// note: answer is a bare numeric in ×10⁻⁶ cm/s

// known answers, use as guide
Molecule	Papp at 2.5 h, ×10⁻⁶ cm/s
CCCOc1ccc2nc(NC(=O)c3ccc(N4CCOCC4)cc3)sc2c1	4.28
O=C(Nc1nc2ccc(Cl)cc2s1)c1ccc(N2CCOCC2)cc1	3.42

Task: Entry under review: CC(C)c1ccc2nc(NC(=O)c3ccc(N4CCOCC4)cc3)sc2c1 . Reported Papp at 2.5 h?
Result: 4.27

====

Measurement notes: in vitro
Details: pig, PAMPA, 2.5 h, pH 7.4
From the text: The above-referenced commercial compounds, phosphate buffer at pH=7.4 (PBS), Ethanol and dodecane were obtained from the commercial houses Sigma, Acros organics, Merck, Aldrich and Fluka, respectively. […] To filter the samples, PVDF membrane filters were used (30 mm diameter, 0.45 μm pore size) from the company Symta. The equipment used to measure UV absorbance in 96-well plates was a Thermoscientific Multiskan spectrum. […]
Value type: Pe (10−6 cm s−1)

// known answers, use as guide
Compound	Pe (10−6 cm s−1)
O=C(Nc1nc2ccc(F)cc2s1)c1ccc(N2CCOCC2)cc1	5.1 ± 0.1 10−6 cm s−1
Cc1ccc2nc(NC(=O)c3ccc(N4CCOCC4)cc3)sc2c1	19.0 ± 2.6 10−6 cm s−1
CN(C)CCCN1c2ccccc2Sc2ccccc21 [Promazine, reference compound]	9.8 ± 0.5 10−6 cm s−1
O=C(Nc1nc2ccccc2s1)c1ccc(N2CCOCC2)cc1	13.4 ± 2.4 10−6 cm s−1

Alright, here's another compound for you.
Task: Entry under review: CN1C(C(=O)Nc2ccccn2)=C(O)c2ccccc2S1(=O)=O [Piroxicam, reference compound] . Reported Pe (10−6 cm s−1)?
Result: 0.6 ± 0.2 10−6 cm s−1

====

System tested: LRRK2 (Homo sapiens (Human), UniProt Q5S007)
Sequence (Q5S007 whole entry): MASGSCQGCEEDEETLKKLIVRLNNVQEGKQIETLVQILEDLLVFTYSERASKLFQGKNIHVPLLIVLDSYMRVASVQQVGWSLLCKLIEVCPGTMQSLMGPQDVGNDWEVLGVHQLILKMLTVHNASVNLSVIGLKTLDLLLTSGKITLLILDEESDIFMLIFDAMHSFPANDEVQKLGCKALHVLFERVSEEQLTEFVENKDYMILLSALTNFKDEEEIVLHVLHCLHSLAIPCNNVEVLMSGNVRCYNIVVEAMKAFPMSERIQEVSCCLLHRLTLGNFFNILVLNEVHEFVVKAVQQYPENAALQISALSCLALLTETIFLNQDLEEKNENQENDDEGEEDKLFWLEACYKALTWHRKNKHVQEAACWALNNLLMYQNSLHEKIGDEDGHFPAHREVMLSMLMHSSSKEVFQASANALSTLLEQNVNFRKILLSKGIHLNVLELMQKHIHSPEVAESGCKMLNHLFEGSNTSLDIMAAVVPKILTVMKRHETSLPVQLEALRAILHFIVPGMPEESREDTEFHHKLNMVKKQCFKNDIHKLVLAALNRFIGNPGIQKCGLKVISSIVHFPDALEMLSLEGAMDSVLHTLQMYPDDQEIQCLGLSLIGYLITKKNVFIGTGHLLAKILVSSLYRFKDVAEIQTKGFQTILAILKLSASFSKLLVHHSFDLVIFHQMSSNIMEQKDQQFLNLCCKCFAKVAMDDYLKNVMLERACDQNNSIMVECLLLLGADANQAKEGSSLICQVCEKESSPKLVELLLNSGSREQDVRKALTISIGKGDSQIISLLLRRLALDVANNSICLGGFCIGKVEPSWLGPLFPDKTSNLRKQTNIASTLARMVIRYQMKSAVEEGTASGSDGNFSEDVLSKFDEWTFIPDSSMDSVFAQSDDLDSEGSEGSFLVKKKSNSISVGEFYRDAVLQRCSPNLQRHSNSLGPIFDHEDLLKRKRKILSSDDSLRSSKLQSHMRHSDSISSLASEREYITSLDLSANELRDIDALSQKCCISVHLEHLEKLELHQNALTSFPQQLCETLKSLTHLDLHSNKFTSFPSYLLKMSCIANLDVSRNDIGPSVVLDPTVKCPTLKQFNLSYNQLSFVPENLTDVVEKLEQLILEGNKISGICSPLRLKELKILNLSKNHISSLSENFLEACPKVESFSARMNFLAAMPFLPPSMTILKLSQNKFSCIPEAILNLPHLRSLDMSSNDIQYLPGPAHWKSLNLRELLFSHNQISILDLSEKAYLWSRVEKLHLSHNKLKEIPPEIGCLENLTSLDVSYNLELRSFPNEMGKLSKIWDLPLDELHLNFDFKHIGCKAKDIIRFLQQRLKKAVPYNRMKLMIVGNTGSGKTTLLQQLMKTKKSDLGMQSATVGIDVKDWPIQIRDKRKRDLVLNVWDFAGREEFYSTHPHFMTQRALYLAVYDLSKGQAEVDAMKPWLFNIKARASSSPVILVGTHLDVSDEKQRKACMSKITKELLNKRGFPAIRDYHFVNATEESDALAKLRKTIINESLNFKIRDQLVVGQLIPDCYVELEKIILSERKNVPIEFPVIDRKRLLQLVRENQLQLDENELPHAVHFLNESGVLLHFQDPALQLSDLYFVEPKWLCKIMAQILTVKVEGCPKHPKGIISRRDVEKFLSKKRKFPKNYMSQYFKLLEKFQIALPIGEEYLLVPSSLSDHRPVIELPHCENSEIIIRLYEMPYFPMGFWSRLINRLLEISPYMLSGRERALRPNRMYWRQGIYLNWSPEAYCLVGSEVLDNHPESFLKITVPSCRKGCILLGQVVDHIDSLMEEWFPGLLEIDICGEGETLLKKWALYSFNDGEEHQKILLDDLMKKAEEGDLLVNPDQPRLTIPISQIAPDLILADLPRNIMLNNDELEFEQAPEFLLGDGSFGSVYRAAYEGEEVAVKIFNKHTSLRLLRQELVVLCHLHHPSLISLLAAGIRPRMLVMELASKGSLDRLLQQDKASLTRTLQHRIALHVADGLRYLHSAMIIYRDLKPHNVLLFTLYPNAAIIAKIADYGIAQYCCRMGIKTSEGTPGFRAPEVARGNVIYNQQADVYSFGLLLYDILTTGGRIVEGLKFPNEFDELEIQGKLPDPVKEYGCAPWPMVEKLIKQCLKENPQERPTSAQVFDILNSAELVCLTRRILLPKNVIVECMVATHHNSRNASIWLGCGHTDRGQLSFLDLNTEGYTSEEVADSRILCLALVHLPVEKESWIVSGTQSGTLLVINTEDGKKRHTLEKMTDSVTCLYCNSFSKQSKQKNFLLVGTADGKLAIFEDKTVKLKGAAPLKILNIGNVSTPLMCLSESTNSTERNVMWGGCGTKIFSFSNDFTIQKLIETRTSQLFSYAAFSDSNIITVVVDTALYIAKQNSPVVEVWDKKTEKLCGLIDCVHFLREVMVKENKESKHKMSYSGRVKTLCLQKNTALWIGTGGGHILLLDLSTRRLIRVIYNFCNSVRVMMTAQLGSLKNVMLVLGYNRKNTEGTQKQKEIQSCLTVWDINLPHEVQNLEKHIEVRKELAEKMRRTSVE
pIC50: −log10 of the molar value.
Output true (1) for pIC50 not less than 6; output false (0) otherwise.

Reference set, count: 2
Molecule	Group
Cc1ccc2nc(NC(=O)c3ccc(N4CCOCC4)cc3)sc2c1 [Compound 4]	true (1)
O=C(Nc1nc2ccc(Br)cc2s1)c1ccc(N2CCOCC2)cc1 [Compound 8]	true (1)

Task: I'd appreciate it if you could say whether CCOc1ccc2nc(NC(=O)c3ccc(N4CCOCC4)cc3)sc2c1 [Compound 7] has pIC50 at least equal to 6.
Result: true (1)

Task: Would you mind doing CCCOc1ccc2nc(NC(=O)c3ccc(N4CCOCC4)cc3)sc2c1 [Compound 9] as well?
Result: false (0)
